- System: MDA-MB-468 breast
- Assay Summary: NCI-60 one-dose screen, 48 h (100 = growth as untreated, 0 = no growth, -100 = all killed)
- Experimental Parameters: 10 µM unless noted
The panel holds about 83,000 compounds, 20% with a hit somewhere; the sample as a whole holds those more often.
Measurement Type: growth (%)
One number for each entry, in %.

Answered examples (6):
{"Compound": "CC[C@H](C)[C@H](NC(=O)[C@H]1CCCCN1C)C(=O)N(C)[C@H](C[C@@H](OC(C)=O)c1cccc(C(=O)N[C@@H](Cc2ccccc2)C[C@H](C)C(=O)O)n1)C(C)C", "Unit Of Measure": "%", "Recorded Measurement": 31.2}
{"Compound": "C[C@@H]1O[C@@H](O[C@H]2CC[C@@]3(C)[C@H](CCC4[C@@H]3C(O)C[C@]3(C)[C@@H](c5ccc(=O)oc5)CC[C@]43O)C2)[C@H](O)[C@H](O)[C@H]1O (some centres undefined)", "Unit Of Measure": "%", "Recorded Measurement": -59.8}
{"Compound": "C[C@@]12CC=C3c4nc(Nc5cccc(O)c5)sc4CC[C@]3(C)[C@H]1CC[C@]1(C)C(=O)CC[C@@H]21", "Unit Of Measure": "%", "Recorded Measurement": 32.2}
{"Compound": "C[C@]12CCc3sc(-c4ccccc4O)nc3C1=CC[C@@H]1[C@@H]2CC[C@]2(C)C(=O)CC[C@@H]12", "Unit Of Measure": "%", "Recorded Measurement": 106}
{"Compound": "CCCCCCCC(=O)OCC/C=C/C1OC1C1OC(=O)/C=C\\C=C\\c2nc(oc2C)/C=C(/C)CCC2OC2C1OC(=O)NC(C)=O (centres undefined)", "Unit Of Measure": "%", "Recorded Measurement": -51.1}
{"Compound": "C/C(=C\\c1ccn(-c2ccccc2N)n1)[C@@H]1C[C@@H]2O[C@]2(C)CCC[C@H](C)[C@H](O)[C@@H](C)C(=O)C(C)(C)[C@@H](O)CC(=O)O1", "Unit Of Measure": "%", "Recorded Measurement": 0}

Dear colleague, could you send me growth for each of the items below? Thanks.
1. Fc1c[c-]c(-c2ccccn2)c(F)c1.[CH3-].[Pt+2].c1ccc([PH+](c2ccccc2)c2ccccn2)cc1
2. CC(=O)O[C@H]1CC[C@]2(C)[C@H]3CC[C@]4(C)[C@@H](OC(C)=O)CC[C@H]4[C@@H]3[C@@H](C)[C@]2(O)C1
3. COC(=O)C12CC(NC(=O)c3csc([C@@H](C[C@H](C(C)C)N(C)C(=O)[C@@H](NC(=O)[C@H]4CCCCN4C)C4CC4)OC(C)=O)n3)(C1)C2

stdout:
[-21.7, 104, 30.1]

Dear colleague, could you send me growth for each of the items below? Thanks.
1. Cn1cc(-c2csc(-c3cn(CCCCN4CCCCC4)c4ccc(F)cc34)n2)c2cccnc21
2. Clc1cccc(N2COOC3(OOC2)C2CC4CC(C2)CC3C4)c1
3. O=[N+]([O-])c1ccc([Se]C2CCCCC2Cl)c([N+](=O)[O-])c1 (centres undefined)

stdout:
[93.3, 77.7, 90.5]

Dear colleague, could you send me growth for each of the items below? Thanks.
1. CC(=O)O[C@H]1CC[C@H]2[C@@H]3CC=C4c5nc(-c6ccccc6)sc5CC[C@]4(C)[C@H]3CC[C@]12C
2. Oc1c(Br)cc(Br)cc1Br.[Cu+2]

stdout:
57.2
102

Dear colleague, could you send me growth for each of the items below? Thanks.
1. CCC[Se]C(=O)c1ccc(C(=O)[Se]CCC)s1
2. N#CC1(c2ccccc2)CCN(Cc2ccccc2)CC1

stdout:
[-80.6, 90.2]

Dear colleague, could you send me growth for each of the items below? Thanks.
1. CCOC(=O)[C@@H](C)C[C@H](Cc1ccccc1)NC(=O)c1csc([C@@H](C[C@H](C(C)C)N(C)C(=O)[C@H](CC)NC(=O)[C@H]2CCCCN2C)OC(C)=O)n1
2. CCCCS(=O)(=O)Cl
3. CCCCN(CCCC)CC(O)c1ccccc1 (centres undefined)
4. CN(C)CCCOc1ccc2c(c1)c(C(=O)C(=O)NCCO)cn2Cc1ccccc1
5. Oc1ccc(Br)cc1CN1CCN(Cc2ccc(Cl)cc2)CC1
6. COc1ccc(N(CC(=O)NCCC[Te]c2ccccc2)C(=O)CNC(=O)OC(C)(C)C)cc1
7. CC[PH+](CC)CC.O=COC1OC([S-])C(OC=O)C(OC=O)C1OC=O.[Au+] (centres undefined)
8. COc1ccc(O)c(CNC(=O)CN2CCCC2=O)c1

stdout:
1: 32.5; 2: 104; 3: 116; 4: 117; 5: 95.9; 6: 92.6; 7: -78.8; 8: 108

Dear colleague, could you send me growth for each of the items below? Thanks.
1. CCCCCCCCCCCCCCCCCC1OCC(COC(=O)O[C@@H](C(=O)O[C@H]2C[C@@]3(O)[C@@H](OC(=O)c4ccccc4)[C@@H]4[C@]5(OC(C)=O)CO[C@@H]5C[C@H](O)[C@@]4(C)C(=O)[C@H](OC(C)=O)C(=C2C)C3(C)C)[C@@H](NC(=O)c2ccccc2)c2ccccc2)O1 (some centres undefined)
2. COC1=CC(=O)O[C@@H](/C=C/c2ccc3c(c2)OCO3)C1
3. O[C@H](CN1CC1)[C@@H](O)CN1CC1
4. O=C1C=CC(=O)C2C1C1(Cl)C(Cl)=C(Cl)C2(Cl)C1(Cl)Cl (centres undefined)

stdout:
1: 3.29; 2: 103; 3: 9.35; 4: 5.2

Dear colleague, could you send me growth for each of the items below? Thanks.
1. CC(C)(NC(=O)O[C@@H]1CN2CCC1CC2)c1csc(-c2ccc(F)cc2)n1
2. COc1ccc(N(CC(=O)NCCC[Te]c2ccccc2)C(=O)CCSC2=C(C)C(=O)c3ccccc3C2=O)cc1
3. COc1ccc2c(c1)c(-c1nc(-c3cn(C)c4ncccc34)cs1)cn2CCCCN1CCOCC1

stdout:
1. 85.2
2. -58.1
3. 35

Dear colleague, could you send me growth for each of the items below? Thanks.
1. O=[N+]([O-])c1cc(Cl)c(Cl)c([N+](=O)[O-])c1Cl
2. COc1cc(C=Nc2cccc(C(=O)O)c2)ccc1N(CCCl)CCCl
3. CC1=C2C(=O)[C@](C)(CO)C=C2C(=O)[C@](C)(O)C12CC2

stdout:
1. 9.01
2. 46.6
3. -69.8

* * *

- Test system: NCI-H23 lung
- Assay Summary: NCI-60 one-dose screen, 48 h (100 = growth as untreated, 0 = no growth, -100 = all killed)
- Experimental Parameters: 10 µM
This is part of a sample that, as a whole, favours compounds with a hit. Of some 83,000 tested, about 20% had one in any assay.
Measurement Type: growth (%)
Answers are plain numbers, in %.

{"Structure Notation": "C#CC[Se]C(=O)c1ccc2n[se]nc2c1", "growth / %": 77}
{"Structure Notation": "O=C(NCCCCC(c1ccc(F)cc1)c1ccc(F)cc1)Nc1ccc([N+](=O)[O-])c(C(F)(F)F)c1", "growth / %": -10.2}

Dear colleague, could you send me growth for each of the items below? Thanks.
1. CC1=C(CCC=NNC(N)=O)C2=C(C)C3(CC3)[C@@](C)(O)C(=O)C2=C1
2. O=C(/C=C/c1cccc(Br)c1)c1nc2ccccc2n1Cc1ccc(Br)cc1
3. C[C@H]1[C@H](OC(=O)CCC(=O)N(CCCc2cn(-c3ccc(C#N)cc3)nn2)CCNc2ccnc3cc(Cl)ccc23)O[C@@H]2OC3(C)CC[C@H]4[C@H](C)CC[C@@H]1[C@@]24OO3
4. CC1=C(COCCOC(=O)c2ccc(S(=O)(=O)F)cc2)C2=C(C)C3(CC3)[C@@](C)(O)C(=O)C2=C1
5. COCCOCCOCCOc1ccc(-n2cc(CCCN(CCNc3ccnc4cc(Cl)ccc34)C(=O)CCC(=O)O[C@@H]3O[C@@H]4OC5(C)CC[C@H]6[C@H](C)CC[C@@H]([C@H]3C)[C@@]46OO5)nn2)cc1
6. Cc1ccc2[nH]c(=S)n(-c3ccc(F)cc3)c(=O)c2c1

stdout:
1: -78.2; 2: -50.7; 3: 47.3; 4: -85.6; 5: 47.9; 6: 98.7

* * *

Please go through the items and note down their growth.
- Tested on: HL-60(TB) leukemia
- Assay Summary: NCI-60 one-dose screen, 48 h (100 = growth as untreated, 0 = no growth, -100 = all killed)
- Experimental Parameters: 10 µM unless noted
Compounds without any hit were thinned out: in the full panel of roughly 83,000, 20% have a hit. Activity calls are given as the source filed them. The calls were made as follows: active = growth percent below 10; inactive = the rest.

{"Compound": "COc1cc(CNC(=O)C[C@H](C)CCC=C(C)C)ccc1OCc1cn(-c2ccc(Cl)c(Cl)c2)nn1", "Tested On": "HL-60(TB) leukemia", "Measurement Type": "growth", "Recorded Measurement": "84% (inactive)"}
{"Compound": "Cc1nc2sccn2c1-c1nnc(SCc2ccccc2)o1", "Tested On": "HL-60(TB) leukemia", "Measurement Type": "growth", "Recorded Measurement": "89.9% (inactive)"}
{"Compound": "CC1(C)CC[C@]2(C(=O)O)CC[C@]3(C)C(=CCC4[C@@]5(C)C[C@@H](O)[C@@H]6OC(c7ccco7)OC[C@@]6(C)C5CC[C@]43C)C2C1 (stereo not given in full)", "Tested On": "HL-60(TB) leukemia", "Measurement Type": "growth", "Recorded Measurement": "13.5% (inactive)"}

Dear colleague, could you send me growth for each of the items below? Thanks.
1. COc1cc2c(c(OC)c1OC)C(=O)CC(c1cccc(NC(=O)c3cccc([N+](=O)[O-])c3)c1)O2 (stereo not given)
2. O=c1cc(-c2ccccc2)oc2cc(OCCCC[P+](c3ccccc3)(c3ccccc3)c3ccccc3)cc(O)c12

stdout:
1: 26.1% (inactive); 2: -51.5% (active)
